System: c-Src
Experiment: phosphorylation enrichment, bacterial display (enrichment ratio); higher = better substrate or ligand; peptides without Tyr show the background;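 also: 11-residue human phosphosite peptides and single-mutation variants displayed on the E. coli surface, counted by deep sequencing, each peptide's frequency after selection divided by its frequency in the unselected input library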;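 also: frequency after pTyr selection over input frequency; kinase dosed for 20-30% of maximal phosphorylation in three min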
So basically: phosphorylation enrichment at 0.6 or higher? That is TRUE. Lower than 0.6? That is FALSE.

The following sequences have reported results that may help.
biosequence="GHPYAYDWISI [BEST1_Y227_L224P]" class_name=TRUE
biosequence="PSSRDYKHNIK [PIGN_Y227]" class_name=FALSE
biosequence="LKVKAYRFSIS [LCT_Y974]" class_name=FALSE
biosequence="YTTIHYNYMCN [TP53_Y234_C229Y]" class_name=TRUE
biosequence="HSREDYFECFQ [ZIM2_Y411_Q408R]" class_name=TRUE

*Q* Identify whether the reported phosphorylation enrichment of the following sequence is 0.6 or greater: VGTTAYVAPEA [IRAK4_Y354_M355V]
*A* FALSE

*Q* Identify whether the reported phosphorylation enrichment of the following sequence is 0.6 or greater: RPASQYPHQVP [ADAM12_Y895_P893S]
*A* FALSE

---

Biological target: Hck (UniProt P08631)
Sequence (P08631 whole entry, looked up): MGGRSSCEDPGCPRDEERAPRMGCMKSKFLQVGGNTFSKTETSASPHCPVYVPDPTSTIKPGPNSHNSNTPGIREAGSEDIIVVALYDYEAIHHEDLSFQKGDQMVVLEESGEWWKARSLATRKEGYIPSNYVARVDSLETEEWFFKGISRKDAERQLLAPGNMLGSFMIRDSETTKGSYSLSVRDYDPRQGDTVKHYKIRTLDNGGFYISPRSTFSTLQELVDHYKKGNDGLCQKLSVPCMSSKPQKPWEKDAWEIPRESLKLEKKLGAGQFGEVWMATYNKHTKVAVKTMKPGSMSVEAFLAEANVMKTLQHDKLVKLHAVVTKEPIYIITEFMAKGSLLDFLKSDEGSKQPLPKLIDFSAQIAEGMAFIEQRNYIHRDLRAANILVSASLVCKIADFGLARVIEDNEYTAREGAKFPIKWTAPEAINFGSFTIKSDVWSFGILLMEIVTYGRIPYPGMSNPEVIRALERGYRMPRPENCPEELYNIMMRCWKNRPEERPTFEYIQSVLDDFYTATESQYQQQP
Test: phosphorylation enrichment, bacterial display (enrichment ratio); higher = better substrate or ligand; peptides without Tyr show the background
So basically: phosphorylation enrichment at 0.7 or higher? That is class 1. Lower than 0.7? That is class 0.

biosequence="LSERGYSFVTT [ACTA2_Y200_T196S]" class_name="class 1"
biosequence="FSTSPYLLEAA [BRIP1_Y921_YF]" class_name="class 0"

*Q* Identify whether the reported phosphorylation enrichment of the following sequence is 0.7 or greater: AGREIYESDKC [TTN_Y4424]
*A* class 0

*Q* Identify whether the reported phosphorylation enrichment of the following sequence is 0.7 or greater: ECKEAYHEGEC [PRKN_Y372]
*A* class 0

*Q* Identify whether the reported phosphorylation enrichment of the following sequence is 0.7 or greater: LMIEEYLTKEP [BAG3_Y457_L462P]
*A* class 1

*Q* Identify whether the reported phosphorylation enrichment of the following sequence is 0.7 or greater: LDYNEYFRYLN [HPRT1_Y198_D201Y]
*A* class 1

---

Tested on: c-Src
Assay: phosphorylation enrichment, bacterial display (enrichment ratio); higher = better substrate or ligand; peptides without Tyr show the background
ATTRIBUTE MEASURED: phosphorylation enrichment
Lab note: jot down the number only; don't add units.

biosequence="MAFDRYVAICS [OR8D4_Y123_C120Y_YF]" attribute_measured="phosphorylation enrichment" measured_value=0.489
biosequence="FSQETYFRVSN [ABCD1_Y180_Q178E_YF]" attribute_measured="phosphorylation enrichment" measured_value=1.51

*Q* Output phosphorylation enrichment of PIPAAYNKFDQ [CDC73_Y290_R292K_YF]
*A* 0.611

---

Catalogue of phosphorylation enrichment readings, one per entry.
Tested on: Fer (mouse)
Assay: phosphorylation enrichment, bacterial display (enrichment ratio); higher = better substrate or ligand; peptides without Tyr show the background
Lab note: jot down the number only; don't add units.

biosequence="EYFDGYWEYSV [ITGA2B_Y265_G267E]" measured_value=1.22
biosequence="SVTCTYSPALY [TP53_Y126_N131Y]" measured_value=0.695
biosequence="MEVGQYIFVKC [CYBB_Y324]" measured_value=0.708
biosequence="VDTAMYATMQR [TPO_Y55]" measured_value=0.519
biosequence="SGGGSYGSGGG [KRT1_Y539]" measured_value=0.356
biosequence="RKGIRYLTSGL [PIGA_Y82]" measured_value=0.368
biosequence="RSFPSYYTSHV [NEFL_Y442]" measured_value=0.65
biosequence="SKEPFYVRCIK [MYO1D_Y586_YF]" measured_value=0.449

*Q* Output phosphorylation enrichment of SVVVPYEAPEV [TP53_Y220_P222A]
*A* 0.546

*Q* Output phosphorylation enrichment of RFGRKYKKVRF [F8_Y442_I438F]
*A* 0.619

*Q* Output phosphorylation enrichment of LASSEYPVQRR [GALK1_Y236_R239Q]
*A* 0.981

*Q* Output phosphorylation enrichment of EVQKDYEHLFK [PAM16_Y77_N76D]
*A* 0.421

*Q* Output phosphorylation enrichment of FAASSYSFSDL [EMD_Y59_S54F]
*A* 0.547

*Q* Output phosphorylation enrichment of ECKEAYHEGEC [PRKN_Y372]
*A* 0.498

*Q* Output phosphorylation enrichment of EDGFAYVPLKD [PRIM2_Y208]
*A* 0.492

*Q* Output phosphorylation enrichment of QYNIQYSSSAA [ERBB2IP_Y981]
*A* 0.606

These data points were gathered from the supplement of paper PMC10065799.
